# experiment_summary: Oral bioavailability in cynomolgus monkey at 3 mg/kg
# Type: ADME, organism-based, Macaca fascicularis
# conditions: in vivo
endpoint: bioavailability (%)

[[record]]
record_smiles = "CN(C)[C@H]1CC[C@H](NC(=O)[C@@H](Cc2ccc(Cl)cc2)NC(=O)C2(c3ccc(F)cc3)CC2)CC1"
endpoint = "bioavailability"
reported_value = 20


---

# experiment_summary: Apparent permeability of the compound from apical to basolateral side of human Caco2 cells
# Format: ADME, cell-based
# conditions: Caco-2
endpoint: Papp A→B

[[record]]
molecule = "CN(C)[C@H]1CC[C@H](NC(=O)[C@@H](Cc2ccc(Cl)cc2)NC(=O)C2(c3ccc(Cl)cc3)CCC2)CC1"
endpoint = "Papp A→B"
reported_value = "< 10 ×10⁻⁶ cm/s"

[[record]]
molecule = "O=C(Cc1ccc(Cl)cc1)N[C@H](Cc1ccc(Cl)cc1)C(=O)NC1CCCCC1O (stereo in doubt; 17h)"
endpoint = "Papp A→B"
reported_value = "> 20 ×10⁻⁶ cm/s"

[[record]]
molecule = "CN(C)[C@H]1CC[C@H](NC(=O)[C@@H](Cc2ccc(Cl)cc2)NC(=O)C2(c3ccc(F)cc3)CC2)CC1"
endpoint = "Papp A→B"
reported_value = "< 10 ×10⁻⁶ cm/s"


---

# experiment_summary: Tmax in Sprague-Dawley rat at 1 mg/kg, iv and 5 mg/kg, po
# Format: ADME, organism-based
# conditions: in vivo
endpoint: Tmax (h)

[[record]]
record_smiles = "CN(C)[C@H]1CC[C@H](NC(=O)[C@@H](Cc2ccc(Cl)cc2)NC(=O)C2(c3ccc(F)cc3)CC2)CC1"
units_text = "h"
reported_value = 5.8


---

# experiment_summary: Cmax in cynomolgus monkey at 1 mg/kg, iv and 3 mg/kg, po
# Assay type: ADME, organism-based, Macaca fascicularis
# conditions: in vivo
endpoint: Cmax (ng/mL)

[[record]]
record_smiles = "CN(C)[C@H]1CC[C@H](NC(=O)[C@@H](Cc2ccc(Cl)cc2)NC(=O)C2(c3ccc(F)cc3)CC2)CC1"
reported_value = 41


---

# experiment_summary: Tmax in cynomolgus monkey at 1 mg/kg, iv and 3 mg/kg, po
# Format: ADME, organism-based, Macaca fascicularis
# conditions: in vivo
endpoint: Tmax (h)

[[record]]
record_smiles = "CN(C)[C@H]1CC[C@H](NC(=O)[C@@H](Cc2ccc(Cl)cc2)NC(=O)C2(c3ccc(F)cc3)CC2)CC1"
endpoint = "Tmax"
units_text = "h"
reported_value = 2.7


---

# experiment_summary: Volume of distribution at steady state in cynomolgus monkey at 1 mg/kg, iv and 3 mg/kg, po
# Type: ADME, organism-based, Macaca fascicularis
# conditions: in vivo, read-out: Vdss
endpoint: Vd (L/kg)

[[record]]
record_smiles = "CN(C)[C@H]1CC[C@H](NC(=O)[C@@H](Cc2ccc(Cl)cc2)NC(=O)C2(c3ccc(F)cc3)CC2)CC1"
units_text = "L/kg"
reported_value = 6.4

